Assay: in vitro
Settings: human, Caco-2
MEASURE NAME: Papp A→B at 60 min, 50 μM (×10⁻⁶ cm/s)

Solved cases (2 shown):
{"COMPOUND": "CCCCc1ncc(/C=C(\\Cc2cccs2)C(=O)O)n1Cc1ccc(C(=O)O)cc1 [Eprosartan, eprosartan, reference compound]", "Papp A→B at 60 min, 50 μM [×10⁻⁶ cm/s]": 0.1}
{"COMPOUND": "CCCCc1cc(CC(C)C)c(C=O)n1Cc1ccc(-c2ccccc2-c2nnn[nH]2)cc1 [Compound 1]", "Papp A→B at 60 min, 50 μM [×10⁻⁶ cm/s]": 27.9}

[P] CCCCC(=O)N(Cc1ccc(-c2ccccc2-c2nnn[nH]2)cc1)[C@H](C(=O)O)C(C)C [Valsartan, valsartan, reference compound]
[Q] CCCCc1cc(C(C)C)c(C=O)n1Cc1ccc(-c2ccccc2-c2nnn[nH]2)cc1 [Compound 6]
In: Look at P and Q . Which one has the lower recorded Papp A→B at 60 min, 50 μM number? Could you answer with the label of the item you picked?
Out: P
(P: 0.2 ×10⁻⁶ cm/s, Q: 15.4 ×10⁻⁶ cm/s)

====

MEASURE NAME: melting point (°C)

{"COMPOUND": "CCCCCc1cc(C(C)C)c(C=O)n1Cc1ccc(-c2ccccc2-c2nnn[nH]2)cc1 [Compound 8]", "MEASURE NAME": "melting point", "READING UNIT": "°C", "REPORTED MEASUREMENT": 144}
{"COMPOUND": "Cc1ccc(C)n1Cc1ccc(-c2ccccc2-c2nnn[nH]2)cc1 [Compound 14]", "MEASURE NAME": "melting point", "READING UNIT": "°C", "REPORTED MEASUREMENT": 107}
{"COMPOUND": "CCCCc1ccc(C=O)n1Cc1ccc(-c2ccccc2-c2nnn[nH]2)cc1 [Compound 7]", "MEASURE NAME": "melting point", "READING UNIT": "°C", "REPORTED MEASUREMENT": 129}
{"COMPOUND": "CCCc1c(Br)cc(C=O)n1Cc1ccc(-c2ccccc2-c2nnn[nH]2)cc1 [Compound 3]", "MEASURE NAME": "melting point", "READING UNIT": "°C", "REPORTED MEASUREMENT": 167}
{"COMPOUND": "CCCCc1cc(C(C)C)c(C=O)n1Cc1ccc(-c2ccccc2-c2nnn[nH]2)cc1 [Compound 6]", "MEASURE NAME": "melting point", "READING UNIT": "°C", "REPORTED MEASUREMENT": 174}

[1] CCCc1ccc(C=O)n1Cc1ccc(-c2ccccc2-c2nnn[nH]2)cc1 [Compound 2]
[2] CCCc1cc(C(C)C)c(C(=O)O)n1Cc1ccc(-c2ccccc2-c2nnn[nH]2)cc1 [Compound 11]
In: Look at 1 and 2 . Which one has the lower recorded melting point number? Could you answer with the label of the item you picked?
Out: 1

====

Experiment: in vitro
Conditions: human, Caco-2
MEASURE NAME: Papp B→A at 40 min, 50 μM (×10⁻⁶ cm/s)

[I] CCCCc1cc(C(C)C)c(C=O)n1Cc1ccc(-c2ccccc2-c2nnn[nH]2)cc1 [Compound 6]
[II] CCCCc1cc(CC(C)C)c(C=O)n1Cc1ccc(-c2ccccc2-c2nnn[nH]2)cc1 [Compound 1]
[III] CCCCc1ncc(/C=C(\Cc2cccs2)C(=O)O)n1Cc1ccc(C(=O)O)cc1 [Eprosartan, eprosartan, reference compound]
[IV] CCCCC(=O)N(Cc1ccc(-c2ccccc2-c2nnn[nH]2)cc1)[C@H](C(=O)O)C(C)C [Valsartan, valsartan, reference compound]
In: Reorder the list: decreasing Papp B→A at 40 min, 50 μM. Answer format: the labels, in the requested order.
Out: II, I, III, IV
(II: 3.4 ×10⁻⁶ cm/s, I: 1 ×10⁻⁶ cm/s, III: 0.4 ×10⁻⁶ cm/s, IV: 0.2 ×10⁻⁶ cm/s)

Cited source for all entries: patent US7906501B2
